Target: human AR (androgen receptor) (Homo sapiens, UniProt P10275)
Sequence (P10275 whole entry): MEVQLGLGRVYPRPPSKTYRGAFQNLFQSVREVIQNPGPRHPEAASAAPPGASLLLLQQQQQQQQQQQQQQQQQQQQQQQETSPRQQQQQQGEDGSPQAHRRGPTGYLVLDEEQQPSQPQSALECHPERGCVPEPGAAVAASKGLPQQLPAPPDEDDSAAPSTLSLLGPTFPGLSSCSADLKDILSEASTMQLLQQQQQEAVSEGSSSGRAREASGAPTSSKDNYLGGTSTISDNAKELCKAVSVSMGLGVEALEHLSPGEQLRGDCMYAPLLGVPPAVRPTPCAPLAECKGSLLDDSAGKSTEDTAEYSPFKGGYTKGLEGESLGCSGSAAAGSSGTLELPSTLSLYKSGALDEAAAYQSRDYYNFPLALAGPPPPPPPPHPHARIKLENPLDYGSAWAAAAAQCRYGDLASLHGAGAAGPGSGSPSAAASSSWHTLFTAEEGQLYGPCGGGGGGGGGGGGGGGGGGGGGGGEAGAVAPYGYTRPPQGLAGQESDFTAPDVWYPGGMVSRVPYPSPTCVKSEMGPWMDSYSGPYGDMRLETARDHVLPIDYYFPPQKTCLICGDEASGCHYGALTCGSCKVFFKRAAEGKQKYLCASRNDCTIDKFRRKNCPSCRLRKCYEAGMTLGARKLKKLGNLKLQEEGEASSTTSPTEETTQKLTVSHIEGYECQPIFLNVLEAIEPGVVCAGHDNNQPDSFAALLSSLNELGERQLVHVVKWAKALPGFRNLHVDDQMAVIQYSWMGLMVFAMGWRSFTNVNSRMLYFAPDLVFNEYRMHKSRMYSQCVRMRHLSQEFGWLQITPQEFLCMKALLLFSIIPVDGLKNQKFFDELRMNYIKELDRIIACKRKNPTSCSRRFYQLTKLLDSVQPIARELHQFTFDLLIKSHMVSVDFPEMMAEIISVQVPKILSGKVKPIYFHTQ
Assay: Steroid nuclear hormone receptor binding assay, AR
Conditions: [3H]-methyltrienolone, HEK293 lysate overexpressing human AR
pKi: −log10 of the molar value.
READOUT KIND: pKi

SMILES INPUT: O=c1[nH]c2cc(/C=C3\c4ccccc4COc4cc(F)ccc43)ccc2n1[C@@H]1C[C@@H]2COCCN2C1
RECORDED VALUE: ~5.93

----------
Target: human glucocorticoid receptor (GR) (Homo sapiens)
Sequence (P04150 whole entry): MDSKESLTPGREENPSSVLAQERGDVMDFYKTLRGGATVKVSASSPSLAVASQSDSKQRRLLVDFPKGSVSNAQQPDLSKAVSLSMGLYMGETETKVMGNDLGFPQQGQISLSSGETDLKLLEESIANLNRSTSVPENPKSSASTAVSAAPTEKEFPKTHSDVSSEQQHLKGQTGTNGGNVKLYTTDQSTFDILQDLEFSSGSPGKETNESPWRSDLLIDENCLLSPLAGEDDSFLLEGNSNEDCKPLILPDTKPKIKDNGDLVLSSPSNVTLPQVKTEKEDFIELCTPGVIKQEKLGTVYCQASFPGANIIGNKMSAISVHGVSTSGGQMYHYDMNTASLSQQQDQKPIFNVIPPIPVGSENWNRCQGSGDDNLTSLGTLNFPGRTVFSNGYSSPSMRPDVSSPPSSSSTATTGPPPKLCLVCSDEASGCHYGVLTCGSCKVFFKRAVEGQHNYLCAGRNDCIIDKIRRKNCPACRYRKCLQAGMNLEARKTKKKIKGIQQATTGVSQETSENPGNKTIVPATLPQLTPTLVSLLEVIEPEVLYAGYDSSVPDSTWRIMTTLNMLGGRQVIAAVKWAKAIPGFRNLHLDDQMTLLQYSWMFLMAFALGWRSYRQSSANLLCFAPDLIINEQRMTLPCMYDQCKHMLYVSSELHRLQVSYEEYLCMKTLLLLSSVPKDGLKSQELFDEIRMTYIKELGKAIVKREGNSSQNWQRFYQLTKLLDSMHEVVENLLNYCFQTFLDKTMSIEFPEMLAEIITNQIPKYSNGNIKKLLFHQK
Assay: Nuclear hormone receptor panel screen (luciferase reporter, HEK293), GR
Conditions: agonist mode
READOUT KIND: EC50

SMILES INPUT: O=c1[nH]c2cc(/C=C3\c4ccccc4COc4cc(F)ccc43)ccc2n1[C@@H]1C[C@@H]2COCCN2C1
RECORDED VALUE: > 10 µM
